# collection of AC50 values tested on 5-hydroxytryptamine receptor 2B (Homo sapiens, UniProt P41595); also: assay procedure not described here
# Sequence (P41595 whole entry): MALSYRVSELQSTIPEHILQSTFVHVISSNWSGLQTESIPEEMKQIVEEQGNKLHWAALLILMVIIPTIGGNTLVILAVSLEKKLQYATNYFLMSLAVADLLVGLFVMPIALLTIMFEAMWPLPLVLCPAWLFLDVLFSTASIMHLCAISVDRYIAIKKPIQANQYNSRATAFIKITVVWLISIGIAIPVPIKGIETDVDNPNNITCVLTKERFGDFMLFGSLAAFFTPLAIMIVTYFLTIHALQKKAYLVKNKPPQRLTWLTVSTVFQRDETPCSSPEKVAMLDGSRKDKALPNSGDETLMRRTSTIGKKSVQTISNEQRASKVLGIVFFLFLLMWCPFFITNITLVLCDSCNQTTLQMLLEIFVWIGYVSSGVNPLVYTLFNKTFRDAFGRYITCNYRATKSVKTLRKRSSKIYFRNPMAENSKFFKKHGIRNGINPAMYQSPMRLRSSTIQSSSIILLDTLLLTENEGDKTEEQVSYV

[
  {
    "compound": "CCCCc1ncc(/C=C(\\Cc2cccs2)C(=O)O)n1Cc1ccc(C(=O)O)cc1",
    "value-observed": "> 10 µM"
  }
]

Could you now look at the following compound, please?
Record CN(C)CCC(c1ccc(Cl)cc1)c1ccccn1 (configuration not stated) has 5-hydroxytryptamine receptor 2B (Homo sapiens, UniProt P41595) AC50 equal to 4.06 µM

====

- target-or-system: Voltage-dependent L-type calcium channel subunit alpha-1C (Rattus norvegicus); also: assay procedure not described here
- Sequence (P22002 whole entry): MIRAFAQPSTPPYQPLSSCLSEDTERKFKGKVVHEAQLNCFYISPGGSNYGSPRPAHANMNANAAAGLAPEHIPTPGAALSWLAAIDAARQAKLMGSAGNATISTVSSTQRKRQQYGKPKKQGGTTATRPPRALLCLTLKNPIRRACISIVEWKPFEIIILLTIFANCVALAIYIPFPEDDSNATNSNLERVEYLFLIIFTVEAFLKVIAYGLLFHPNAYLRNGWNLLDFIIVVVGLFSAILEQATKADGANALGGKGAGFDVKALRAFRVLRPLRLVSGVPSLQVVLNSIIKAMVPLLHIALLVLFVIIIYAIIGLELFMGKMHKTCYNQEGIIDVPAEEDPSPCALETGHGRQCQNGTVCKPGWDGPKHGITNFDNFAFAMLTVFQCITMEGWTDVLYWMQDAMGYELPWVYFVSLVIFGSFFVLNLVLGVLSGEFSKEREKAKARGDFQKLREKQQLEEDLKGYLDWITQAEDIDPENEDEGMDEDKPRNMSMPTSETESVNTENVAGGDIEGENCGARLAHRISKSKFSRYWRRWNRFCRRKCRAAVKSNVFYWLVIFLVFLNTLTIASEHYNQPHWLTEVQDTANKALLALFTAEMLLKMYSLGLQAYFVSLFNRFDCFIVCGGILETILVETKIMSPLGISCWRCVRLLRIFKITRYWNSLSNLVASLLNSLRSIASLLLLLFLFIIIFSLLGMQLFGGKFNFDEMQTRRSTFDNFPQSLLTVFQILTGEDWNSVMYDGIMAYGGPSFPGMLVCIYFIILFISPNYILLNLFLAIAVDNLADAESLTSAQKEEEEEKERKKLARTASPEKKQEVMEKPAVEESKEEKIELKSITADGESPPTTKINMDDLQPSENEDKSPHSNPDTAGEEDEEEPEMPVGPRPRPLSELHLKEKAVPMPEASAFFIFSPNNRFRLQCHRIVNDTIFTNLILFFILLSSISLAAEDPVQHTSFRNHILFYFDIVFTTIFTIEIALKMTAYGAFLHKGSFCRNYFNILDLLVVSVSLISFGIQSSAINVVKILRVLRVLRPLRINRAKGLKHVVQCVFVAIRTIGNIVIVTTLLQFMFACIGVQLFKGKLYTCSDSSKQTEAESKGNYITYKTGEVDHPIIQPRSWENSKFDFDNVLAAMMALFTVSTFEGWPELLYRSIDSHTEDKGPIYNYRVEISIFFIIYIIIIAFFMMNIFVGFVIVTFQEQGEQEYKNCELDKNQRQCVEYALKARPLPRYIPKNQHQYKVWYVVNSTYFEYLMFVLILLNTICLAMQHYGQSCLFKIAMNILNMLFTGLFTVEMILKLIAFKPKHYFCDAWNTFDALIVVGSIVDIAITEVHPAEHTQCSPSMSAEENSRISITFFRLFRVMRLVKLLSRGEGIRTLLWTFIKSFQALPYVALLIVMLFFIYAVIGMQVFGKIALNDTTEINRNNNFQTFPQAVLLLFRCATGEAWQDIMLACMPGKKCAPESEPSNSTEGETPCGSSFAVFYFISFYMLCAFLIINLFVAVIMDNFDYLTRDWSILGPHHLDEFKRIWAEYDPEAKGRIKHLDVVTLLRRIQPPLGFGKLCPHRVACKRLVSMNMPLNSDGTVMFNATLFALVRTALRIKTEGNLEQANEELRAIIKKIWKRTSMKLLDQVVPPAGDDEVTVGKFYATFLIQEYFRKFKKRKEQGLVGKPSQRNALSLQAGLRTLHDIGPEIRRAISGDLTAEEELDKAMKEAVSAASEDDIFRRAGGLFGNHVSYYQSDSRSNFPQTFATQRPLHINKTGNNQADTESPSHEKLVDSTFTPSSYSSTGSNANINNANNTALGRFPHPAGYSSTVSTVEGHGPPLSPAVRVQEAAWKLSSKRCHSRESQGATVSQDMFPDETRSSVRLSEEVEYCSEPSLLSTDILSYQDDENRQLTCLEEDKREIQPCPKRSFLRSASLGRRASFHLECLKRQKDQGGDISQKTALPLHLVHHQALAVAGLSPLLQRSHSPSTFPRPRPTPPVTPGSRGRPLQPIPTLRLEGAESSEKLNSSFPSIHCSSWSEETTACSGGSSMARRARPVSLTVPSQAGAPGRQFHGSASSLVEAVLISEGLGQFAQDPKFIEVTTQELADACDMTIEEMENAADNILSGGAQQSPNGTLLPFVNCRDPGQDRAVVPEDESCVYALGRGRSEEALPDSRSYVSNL
- Format: functional
observation-type: AC50

Please review the following examples before continuing.
[
  {
    "compound": "COc1ccc(CCNCC(O)COc2cccc(C)c2)cc1OC (centres undefined)",
    "AC50": "> 10 µM"
  },
  {
    "compound": "CC(C)=CCC/C(C)=C/C=C/C(C)=C/C=C/C(C)=C/C=C/C=C(C)/C=C/C=C(C)/C=C/C=C(\\C)CCC=C(C)C",
    "AC50": "> 30 µM"
  },
  {
    "compound": "Cc1c(C(=O)NN2CCCCC2)nn(-c2ccc(Cl)cc2Cl)c1-c1ccc(Cl)cc1",
    "AC50": "3.19 µM"
  },
  {
    "compound": "CC(C)(C)c1cc(C(C)(C)C)c(NC(=O)c2c[nH]c3ccccc3c2=O)cc1O",
    "AC50": "> 10 µM"
  }
]

compound CN(C)CCC(c1ccc(Cl)cc1)c1ccccn1 (centres undefined) , AC50 observed: > 10 µM

compound C=CCC1(CC(C)C)C(=O)NC(=O)NC1=O , AC50 observed: > 10 µM

All figures here come from ChEMBL document CHEMBL5291721.
